# assay system: human mGluR5 (Homo sapiens)
# Construct: expressed in transfected cells; host or cells: HEK293 cells stably expressing rat GLAST (EAAT1), stably transfected with pcDNAzeo3.1 carrying synthetic human mGluR5 DNA; zeocin-selected single clones
# Sequence (P41594 21-1212): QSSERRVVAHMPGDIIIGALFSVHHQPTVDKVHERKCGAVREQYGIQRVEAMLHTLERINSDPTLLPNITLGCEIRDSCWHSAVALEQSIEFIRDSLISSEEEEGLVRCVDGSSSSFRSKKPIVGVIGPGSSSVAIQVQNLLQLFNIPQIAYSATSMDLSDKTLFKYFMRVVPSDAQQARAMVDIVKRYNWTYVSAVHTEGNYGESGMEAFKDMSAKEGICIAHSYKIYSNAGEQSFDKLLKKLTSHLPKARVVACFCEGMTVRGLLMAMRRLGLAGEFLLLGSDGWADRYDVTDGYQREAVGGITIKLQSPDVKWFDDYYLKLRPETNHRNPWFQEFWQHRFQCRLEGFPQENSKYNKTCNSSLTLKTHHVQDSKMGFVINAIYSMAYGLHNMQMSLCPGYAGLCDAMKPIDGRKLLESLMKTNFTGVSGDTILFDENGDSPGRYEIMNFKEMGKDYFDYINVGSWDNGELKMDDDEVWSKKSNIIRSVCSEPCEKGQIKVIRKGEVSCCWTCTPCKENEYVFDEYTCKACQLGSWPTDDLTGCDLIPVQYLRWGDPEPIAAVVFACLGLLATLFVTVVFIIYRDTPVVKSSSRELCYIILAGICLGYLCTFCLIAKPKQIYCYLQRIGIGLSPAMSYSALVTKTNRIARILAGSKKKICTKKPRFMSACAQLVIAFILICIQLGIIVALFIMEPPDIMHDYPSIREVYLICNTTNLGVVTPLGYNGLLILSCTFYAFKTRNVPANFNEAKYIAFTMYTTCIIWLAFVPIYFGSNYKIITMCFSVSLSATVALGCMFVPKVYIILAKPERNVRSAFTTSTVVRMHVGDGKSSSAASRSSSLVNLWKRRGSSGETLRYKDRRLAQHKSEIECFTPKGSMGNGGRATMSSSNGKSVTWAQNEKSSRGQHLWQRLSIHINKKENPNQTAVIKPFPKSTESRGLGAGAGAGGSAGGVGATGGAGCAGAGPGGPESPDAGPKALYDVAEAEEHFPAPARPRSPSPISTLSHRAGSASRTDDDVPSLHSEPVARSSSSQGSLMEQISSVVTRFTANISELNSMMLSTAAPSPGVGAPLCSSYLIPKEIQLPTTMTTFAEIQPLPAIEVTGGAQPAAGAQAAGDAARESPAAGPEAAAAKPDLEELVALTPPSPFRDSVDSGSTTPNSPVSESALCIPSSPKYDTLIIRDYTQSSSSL
# protocol text: In vitro cell-based FLIPR calcium assay for positive modulation of the activation of mGluR5 by glutamate (PAM EC50)
# cond: HEK293/GLAST cells expressing recombinant human mGluR5; FLIPR calcium signal; glutamate added at its EC20; read-out: mGluR5 PAM EC50
We begin with a simple list: items and their reported EC50.

Problem: So what does the record say about EC50 for O=c1c2ccc(C#Cc3cccc(F)c3)cc2nc2n1CCC2 [Example 3.1] ?
Result: < 10 nM

Problem: So what does the record say about EC50 for CC1CCc2nc3cc(/C=C/c4ccccn4)ccc3c(=O)n2CC1 (stereo not drawn) [Example 20.3] ?
Result: 100 to 300 nM

Problem: So what does the record say about EC50 for CC(=O)N1CCc2nc3cc(C#Cc4cccc(F)c4)ccc3c(=O)n2CC1 [Example 8.17] ?
Result: 100 to 300 nM

Problem: So what does the record say about EC50 for O=c1c2ccc(C#Cc3cccs3)cc2nc2n1CCC1(CC2)OCCO1 [Example 7.57] ?
Result: 30 to 100 nM

Problem: So what does the record say about EC50 for CC1(C)CC(F)c2nc3cc(C#Cc4ccccn4)ccc3c(=O)n2C1 (stereo not drawn) [Example 4.47] ?
Result: < 10 nM

Problem: So what does the record say about EC50 for O=C1CCc2nc3cc(C#Cc4cccc(F)c4)ccc3c(=O)n2CCN1 [Example 10.5] ?
Result: 30 to 100 nM

Problem: So what does the record say about EC50 for CN1CCCC1Cn1cnc2cc(C#Cc3cccc(F)c3)ccc2c1=O (stereo not drawn) [Example 1.21] ?
Result: 100 to 300 nM

Problem: So what does the record say about EC50 for O=c1c2ccc(C#Cc3ccc(Cl)cc3)cc2nc2n1CCC1(CC2)OCCO1 [Example 7.09] ?
Result: 300 to 1000 nM

Problem: So what does the record say about EC50 for CC1Cc2nc3cc(/C=C/c4ccccc4)ccc3c(=O)n2C1 (stereo not drawn) [Example 20.4] ?
Result: 30 to 100 nM

====

# assay system: human mGluR5 (Homo sapiens)
# Construct: expressed in transfected cells; host or cells: HEK293 cells stably expressing rat GLAST (EAAT1), stably transfected with pcDNAzeo3.1 carrying synthetic human mGluR5 DNA; zeocin-selected single clones
# protocol text: In vitro cell-based FLIPR calcium assay for positive modulation of the activation of mGluR5 by glutamate (PAM EC50)
# cond: HEK293/GLAST cells expressing recombinant human mGluR5; FLIPR calcium signal; glutamate added at its EC20; read-out: mGluR5 PAM EC50
We begin with a simple list: items and their reported EC50.

Worked cases, EC50 given:
O=c1c2ccc(C#Cc3cccc(F)c3)cc2nc2n1CCN(CCO)C2 [Example 5.8]    30 to 100 nM
CN1CCn2c(nc3cc(C#Cc4cccc(F)c4)ccc3c2=O)C1 [Example 5.4]    < 10 nM
CC1Cc2nc3cc(C#Cc4ccccn4)cnc3c(=O)n2C1 (stereo not drawn) [Example 11.13]    300 to 1000 nM
CC1CCc2nc3cc(C#Cc4cccc(F)c4)ccc3c(=O)n2CC1 (stereo not drawn) [Example 6.7]    < 10 nM
CC1Cc2nc3cc(C#Cc4ccccn4)ccc3c(=O)n2CCN1C (stereo not drawn) [Example 8.28]    300 to 1000 nM
CC(C)N1CCc2nc3cc(C#Cc4ccc(F)cc4)ccc3c(=O)n2CC1 [Example 8.3]    100 to 300 nM
O=c1c2ccc(C#Cc3nccs3)cc2nc2n1CCC1(CC2)OCCO1 [Example 7.60]    300 to 1000 nM
CCC1CCCc2nc3cc(C#Cc4ccccn4)ccc3c(=O)n21 (stereo not drawn) [Example 4.19]    10 to 30 nM
CC1(C)CCn2c(nc3cc(CCc4ccccn4)ccc3c2=O)C1 [Example 21.6]    300 to 1000 nM
CC1Cc2nc3cc(CCc4cccc(F)c4)ccc3c(=O)n2C1 (stereo not drawn) [Example 21.7]    300 to 1000 nM

Problem: So what does the record say about EC50 for O=c1c2ccc(C#CC3CCCCC3)cc2nc2n1CCC1(CC2)OCCO1 [Example 7.54] ?
Result: 300 to 1000 nM

Problem: So what does the record say about EC50 for O=c1c2ccc(C#Cc3ccccn3)cc2nc2n1CCC(F)CC2 (stereo not drawn) [Example 6.46] ?
Result: < 10 nM
